- procedure summary: Neurotoxicity in po dosed Rattus norvegicus (rat) assessed as minimal motor impairment by rotorod test
- Format: toxicity, organism-based
- measurement conditions: in vivo
measured metric: TD50

Reference set (3 entries):
>  <compound>
C[C@H](CO)NC(=O)OCc1ccccc1

>  <measured>
> 500 mg/kg

$$$$
>  <compound>
NC(=O)OCC(COC(N)=O)c1ccccc1 [FELBAMATE]

>  <measured>
> 500 mg/kg

$$$$
>  <compound>
C[C@@H](CO)NC(=O)OCc1ccccc1

>  <measured>
> 360 mg/kg

$$$$

Next, consider the following compound.
TD50 recorded for this compound, CCC(COC(N)=O)c1ccccc1 (racemic) , is > 320 mg/kg
